test system: TSSK1B; details: concentration: 1 μM, replicates: in singlicate; n = 1;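 also: KINOMEscan kinase panel screen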
measurementName: %Inh
Record the result as number plus unit.

Some solved cases for reference:
Cl.NC(=O)c1cccc(Nc2nccc(Nc3ccc(Oc4c(Cl)cccc4Cl)c(Cl)c3)n2)c1 = 8%
Nc1ncc(-c2ccc3nccc(-c4ccncc4)c3c2)cc1S(=O)(=O)N1CCOCC1 = 0%
COc1cc(Nc2nccc(-c3c(-c4cccc(NC(=O)c5c(F)cccc5F)c4)nn4ccccc34)n2)cc(OC)c1OC = 0%

Query :: Name the recorded %Inh of the item `Nc1ncc(-c2cccnc2)c2scc(-c3ccc4c(c3)CCN4C(=O)Cc3ccccc3)c12` in your answer.
Result :: 20%
